The values you see were collected from PubChem BioAssay (NCI).

tested on: SR leukemia; assay: NCI-60 one-dose screen, 48 h (100 = growth as untreated, 0 = no growth, -100 = all killed); conditions: 10 µM unless noted
This is part of a sample that, as a whole, favours compounds with a hit. Of some 83,000 tested, about 20% had one in any assay.
growth reference

{"structure_smiles": "NC(=N\\N=C/c1ccc(O)cc1)/C(N)=N\\N=C/c1ccc(O)cc1", "growth, %": 33.7}
{"structure_smiles": "Cc1nc2cncc(C#Cc3cncc(C(=O)Nc4ccc(CN5CCN(C)CC5)c(C(F)(F)F)c4)c3)c2nc1C", "growth, %": 19.7}
{"structure_smiles": "O=c1ccn(-c2ncnc3nc[nH]c23)cc1", "growth, %": 86.2}
{"structure_smiles": "C=C1C(=O)O[C@@H]2[C@@H]3O[C@@](C)(CC/C=C(\\C)CCC[C@@H]2C)[C@H](O)C[C@@H]13", "growth, %": 13.7}
{"structure_smiles": "O=C(NS(=O)(=O)c1ccc2ccccc2c1)n1cc(-c2ccncc2)c(-c2ccc(Cl)c(O)c2)n1", "growth, %": 61.8}

----------
tested on: SNB-19 CNS; assay: NCI-60 one-dose screen, 48 h; details: 10 µM unless noted
This is part of a sample that, as a whole, favours compounds with a hit. Of some 83,000 tested, about 20% had one in any assay. Activity calls are given as the source filed them. How the source made its calls: active means growth percent below 10; inactive means the rest.
Outcomes: active, inactive

{"compound": "O=[N+]([O-])c1ccc(C(c2ccccc2)c2ccccc2)cc1", "target_system": "SNB-19 CNS", "category_label": "inactive"}
{"compound": "CCNc1nc(S(=O)(=O)CC)nc2ccccc12", "target_system": "SNB-19 CNS", "category_label": "inactive"}
{"compound": "CN(CCCCN(C[C@H]1Cc2ncccc2CN1)[C@H]1CCCc2cccnc21)C1CCC(F)(F)CC1", "target_system": "SNB-19 CNS", "category_label": "inactive"}
{"compound": "COc1ccc(-c2cn(-c3cccc(C(=O)/C=C/c4cc(OC)c(OC)c(OC)c4)c3)c(=O)[nH]2)cc1OC", "target_system": "SNB-19 CNS", "category_label": "inactive"}
{"compound": "Cc1cc(C)n(-c2nnc3n2N=C(c2ccc(-c4ccccc4)cc2)CS3)n1", "target_system": "SNB-19 CNS", "category_label": "inactive"}
{"compound": "Cc1ccc(C(=O)NCCCNc2nccc(-n3ccc4cccnc43)n2)cc1", "target_system": "SNB-19 CNS", "category_label": "inactive"}
{"compound": "CN(C)CCCC(C#N)c1ccccc1 (configuration not stated)", "target_system": "SNB-19 CNS", "category_label": "inactive"}
{"compound": "Cc1cc(N)n(S(=O)(=O)c2oc(-c3ccccc3)nc2C#N)n1", "target_system": "SNB-19 CNS", "category_label": "inactive"}
{"compound": "O=C1/C(=C/c2ccccc2)Oc2ccc(O)c(I)c21", "target_system": "SNB-19 CNS", "category_label": "inactive"}
{"compound": "COc1ccc(-c2nc(/C=N/Nc3cc(C)nc4ccc(Br)cc34)c(C)o2)cc1", "target_system": "SNB-19 CNS", "category_label": "active"}
{"compound": "Clc1ccc(-c2nc3ccccc3s2)cc1Cl", "target_system": "SNB-19 CNS", "category_label": "inactive"}
{"compound": "CCOC(=O)NNC(=S)Nc1ccccc1", "target_system": "SNB-19 CNS", "category_label": "inactive"}
{"compound": "CCOC(=O)/C(C#N)=C1/C(=O)Nc2ccccc21", "target_system": "SNB-19 CNS", "category_label": "inactive"}
{"compound": "Cc1ccc(S(=O)(=O)NC(=O)n2cc(-c3ccncc3)c(-c3ccc(Cl)c(O)c3)n2)cc1", "target_system": "SNB-19 CNS", "category_label": "inactive"}
{"compound": "O=[N+]([O-])c1cc(Cl)c2[nH]c3c(Cl)cc([N+](=O)[O-])cc3c2c1", "target_system": "SNB-19 CNS", "category_label": "inactive"}
{"compound": "C=C1c2nc3ccccc3n2C=C(c2ccc(Cl)cc2)N1Cc1ccccc1", "target_system": "SNB-19 CNS", "category_label": "inactive"}
{"compound": "Cc1ccc(Cc2c(C=O)nc(N)[nH]c2=O)c2ccccc12", "target_system": "SNB-19 CNS", "category_label": "inactive"}
{"compound": "CCN(CC)c1ccc(/C=C2\\Oc3ccc(O)c(I)c3C2=O)cc1", "target_system": "SNB-19 CNS", "category_label": "inactive"}
{"compound": "COc1ccc(C(=O)c2cc(OC)c3c(c2)OCO3)cc1O", "target_system": "SNB-19 CNS", "category_label": "inactive"}
{"compound": "O=C1NN(C(=O)c2ccc(Cl)cc2)C(c2ccccc2)=N/C1=C\\c1ccc(F)cc1", "target_system": "SNB-19 CNS", "category_label": "inactive"}
{"compound": "S=c1[nH]nc(-c2cc3ccc2CCc2ccc(cc2)CC3)n1C1CC1", "target_system": "SNB-19 CNS", "category_label": "inactive"}
{"compound": "COP(=O)(OC)/C(=N\\NS(=O)(=O)c1ccc(C)cc1)c1ccccc1", "target_system": "SNB-19 CNS", "category_label": "inactive"}

----------
system: NCI/ADR-RES ovarian; assay: NCI-60 one-dose screen, 48 h; conditions: 10 µM unless noted
The panel holds about 83,000 compounds, 20% with a hit somewhere; the sample as a whole holds those more often. Active and inactive are the calls of the source. The calls were made as follows: active = growth percent below 10; inactive = the rest.
Outcomes: True = active, False = inactive

{"compound": "COc1ccc(/C=C2\\Oc3cc(OCCCN4CCCC4)ccc3C2=O)cc1", "target_system": "NCI/ADR-RES ovarian", "category_label": "False"}
{"compound": "CCC(C)/C(=C\\C#N)NCCCN/C(=C/C#N)C(C)CC (stereo unspecified)", "target_system": "NCI/ADR-RES ovarian", "category_label": "False"}
{"compound": "CCCCN(CCCC)c1ccc(C(=N)c2ccc(N(CCCC)CCCC)cc2)cc1", "target_system": "NCI/ADR-RES ovarian", "category_label": "True"}
{"compound": "COc1ccc(C2C=C(c3ccc(OC)c(OC)c3)N=C3SC=C(C)N32)c(Br)c1 (stereo unspecified)", "target_system": "NCI/ADR-RES ovarian", "category_label": "False"}
{"compound": "COc1ccc(C(=O)NC(=O)Nc2cc3c(cc2F)/C(=C/c2[nH]c(C)c(CCC(=O)O)c2C)C(=O)N3)c(F)c1", "target_system": "NCI/ADR-RES ovarian", "category_label": "False"}
{"compound": "C=CCn1c2ccccc2c2c3c(c4c5ccccc5n(CC=C)c4c21)C(=O)N(O)C3=O", "target_system": "NCI/ADR-RES ovarian", "category_label": "True"}
{"compound": "Clc1cccc(-c2cc(-c3ccc4c(c3)OCCO4)[nH]n2)c1", "target_system": "NCI/ADR-RES ovarian", "category_label": "True"}
{"compound": "FC(F)(F)c1ccccc1-c1cn2c(ccc3ccccc32)n1", "target_system": "NCI/ADR-RES ovarian", "category_label": "False"}
{"compound": "Cn1cnc2c(N3CCN(C(=O)OCc4ccc5c(Cl)cc(Cl)c(O)c5n4)CC3)nc(Cl)nc21", "target_system": "NCI/ADR-RES ovarian", "category_label": "False"}
{"compound": "COc1ccc(C(=O)N2NC(=O)/C(=C/c3ccc(F)cc3)N=C2c2ccccc2)cc1", "target_system": "NCI/ADR-RES ovarian", "category_label": "False"}
{"compound": "Cc1ccc(S(=O)(=O)Nc2c(Br)cc(Br)cc2C(N)=O)cc1", "target_system": "NCI/ADR-RES ovarian", "category_label": "False"}
{"compound": "COc1cc(-c2nn(-c3cccc(NC(=O)Nc4ccc(Cl)c(Cl)c4)c3)cc2-c2ccncc2)ccc1Cl", "target_system": "NCI/ADR-RES ovarian", "category_label": "True"}
{"compound": "O=C(Nc1ccncc1)C(=O)c1cn(S(=O)(=O)c2ccc(Cl)cc2)c2ccccc12", "target_system": "NCI/ADR-RES ovarian", "category_label": "True"}
{"compound": "COc1cc(/C=C/C(=O)c2ccc(Nc3ncnc4cc(OC)c(OC)cc34)cc2)cc(OC)c1", "target_system": "NCI/ADR-RES ovarian", "category_label": "False"}
{"compound": "CN(C)CCCN(c1nc(C(Cl)(Cl)Cl)ns1)c1nc(C(Cl)(Cl)Cl)ns1", "target_system": "NCI/ADR-RES ovarian", "category_label": "False"}
{"compound": "COc1ccc(-n2c(=O)sc3c(Cl)nc(C)nc32)c(OC)c1", "target_system": "NCI/ADR-RES ovarian", "category_label": "False"}
{"compound": "C=COC(=O)CCCCCCCCC", "target_system": "NCI/ADR-RES ovarian", "category_label": "False"}
{"compound": "N#Cc1ccc(N2Cc3ccccc3OC3=C2C(=O)c2c(O)ccc(O)c2C3=O)cc1", "target_system": "NCI/ADR-RES ovarian", "category_label": "False"}
{"compound": "O=[N+]([O-])c1cccc(-c2nc3sccn3c2-c2ccnc(NCCCNS(=O)(=O)c3ccc(C(F)(F)F)cc3)n2)c1", "target_system": "NCI/ADR-RES ovarian", "category_label": "True"}
{"compound": "N=c1ccc2nc3ccc(N)cc3sc-2c1", "target_system": "NCI/ADR-RES ovarian", "category_label": "True"}
{"compound": "O=C(/C=C/c1ccccc1)c1cccc(O)c1", "target_system": "NCI/ADR-RES ovarian", "category_label": "False"}
